experiment: BSK_CASM3C_Proliferation: Cell Proliferation Assessment in the BioMAP Diversity Plus: CASM3C Assay (AID 2283047); settings: primary human coronary artery smooth muscle cells;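 note: sulforhodamine B total protein stain as relative cell number at 560 nm; sub-confluent cells exposed 48 h before staining; fitted both ways against DMSO so gain or loss of cell number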
Activity calls are given as the source filed them. Rule for the calls: active = hit-call score of the fitted dose curve at least 0.9, where 1 is the maximum; inactive = score below 0.9.
In this exercise, the only acceptable responses are active, inactive

Observe how each entry below is paired with its result.
{"MOLECULAR_STRING": "COc1cccc(O)c1", "LABEL_CLASS": "inactive"}
{"MOLECULAR_STRING": "CCOC(=O)CN[C@@H](C(=O)N1CC[C@H]1C(=O)NCc1ccc(/C(N)=N/O)cc1)C1CCCCC1", "LABEL_CLASS": "inactive"}
{"MOLECULAR_STRING": "C=CC(=C)CC/C=C(\\C)CCC=C(C)C", "LABEL_CLASS": "inactive"}
{"MOLECULAR_STRING": "CCCCCCCCCCCC", "LABEL_CLASS": "inactive"}
{"MOLECULAR_STRING": "O=C1OC2(c3ccccc31)c1cc(I)c(O)c(I)c1Oc1c2cc(I)c(O)c1I", "LABEL_CLASS": "inactive"}

Proceed to the following item.
QUERY: For Clc1ccc(Nc2nnc(Cc3ccncc3)c3ccccc23)cc1 , which call appears in the assay record?
RESULT: active

====

experiment: ATG_TCF_b_cat_CIS: Attagene CIS-FACTORIAL HepG2 Assay for human T-Cell-Factor with beta-catenin (TCF/b-cat) (AID 2282965); settings: HepG2 TCF/beta-catenin cis-reporter transcription, actives raise or lower the signal
Calls of active or inactive are those of the source. Rule for the calls: active = hit-call score of the fitted dose curve at least 0.9, where 1 is the maximum; inactive = score below 0.9.
In this exercise, the only acceptable responses are yes = active, no = inactive

Observe how each entry below is paired with its result.
{"COMPOUND": "O=C(O)C(=O)O", "LABEL_CLASS": "no"}
{"COMPOUND": "NC(C(F)(F)F)C(F)(F)F", "LABEL_CLASS": "no"}

QUERY: For C=CC(=O)OCC(CO)(COCC(COC(=O)C=C)(COC(=O)C=C)COC(=O)C=C)COC(=O)C=C , which call appears in the assay record?
RESULT: yes

QUERY: And CCCCCCCCCCCCOC(=O)c1cc(O)c(O)c(O)c1 ?
RESULT: no

QUERY: And Cc1cc(C(C)(C)C)c(O)c(C(C)(C)C)c1 ?
RESULT: no

QUERY: And CCCC=O ?
RESULT: no

QUERY: And CC1CCC(CO)CC1 (centres undefined) ?
RESULT: no

QUERY: And O=P(O)(O)CCC(F)(F)C(F)(F)C(F)(F)C(F)(F)C(F)(F)C(F)(F)C(F)(F)C(F)(F)F ?
RESULT: no

QUERY: And NS(=O)(=O)O ?
RESULT: no

QUERY: And Oc1cc2ccccc2cc1O ?
RESULT: no

QUERY: And c1cc[nH]c1 ?
RESULT: no

====

read-out: JUN Transcription Factor, JUN (gene 3725); experiment: LTEA_HepaRG_JUN: Life Technologies and Expression Analysis (LTEA) Assay for JUN Transcription Factor using HepaRG (AID 2283513); conditions: mRNA level, 48 h; actives raise or lower the signal
The source made the active and inactive calls. The calls were made as follows: active = hit-call score of the fitted dose curve at least 0.9, where 1 is the maximum; inactive = score below 0.9.
In this exercise, the only acceptable responses are 1 = active, -1 = inactive

{"MOLECULE": "Cc1[nH]nc2c1N=C(c1ccccc1Cl)c1cc([N+](=O)[O-])ccc1N2", "LABEL_CLASS": 1}
{"MOLECULE": "CS(=O)(=O)c1ccc([C@@H](CC2CCCC2)C(=O)Nc2cnccn2)cc1Cl", "LABEL_CLASS": -1}

QUERY: For OCC(CO)(CBr)CBr , which call appears in the assay record?
RESULT: -1

QUERY: And O=C(c1ccccc1)c1ccccc1 ?
RESULT: -1

QUERY: And N=C(N)c1ccc(OCCCCCOc2ccc(C(=N)N)cc2)cc1 ?
RESULT: 1

QUERY: And CCCCCCCCCCCCOS(=O)(=O)O ?
RESULT: 1

====

molecular target: X-box-binding protein 1 (Homo sapiens); experiment: ATG_Xbp1_CIS: Attagene CIS-FACTORIAL HepG2 Assay for human X-box Binding Protein 1 (XBP1) (AID 2282972); settings: HepG2 XBP1 cis-element reporter, Attagene multiplex; actives raise or lower the signal
The source made the active and inactive calls. The calls were made as follows: active = hit-call score of the fitted dose curve at least 0.9, where 1 is the maximum; inactive = score below 0.9.
In this exercise, the only acceptable responses are active, inactive

Observe how each entry below is paired with its result.
{"MOLECULE": "COCC1CCC(CO)CC1 (stereo not drawn)", "TEST_TARGET": "X-box-binding protein 1 (Homo sapiens)", "LABEL_CLASS": "inactive"}
{"MOLECULE": "CCCCCCCCCCCCCCCC(=O)OC", "TEST_TARGET": "X-box-binding protein 1 (Homo sapiens)", "LABEL_CLASS": "inactive"}
{"MOLECULE": "O=C(c1cc(O)c(O)c(O)c1)c1ccc(O)c(O)c1O", "TEST_TARGET": "X-box-binding protein 1 (Homo sapiens)", "LABEL_CLASS": "inactive"}
{"MOLECULE": "C=CC(=O)OCCC(F)(F)C(F)(F)C(F)(F)C(F)(F)C(F)(F)C(F)(F)C(F)(F)C(F)(F)F", "TEST_TARGET": "X-box-binding protein 1 (Homo sapiens)", "LABEL_CLASS": "inactive"}
{"MOLECULE": "C=CC(=O)OCCC(F)(F)C(F)(F)C(F)(F)C(F)(F)C(F)(F)C(F)(F)F", "TEST_TARGET": "X-box-binding protein 1 (Homo sapiens)", "LABEL_CLASS": "inactive"}
{"MOLECULE": "CCCCC(CC)C(=O)O (stereo not drawn)", "TEST_TARGET": "X-box-binding protein 1 (Homo sapiens)", "LABEL_CLASS": "inactive"}
{"MOLECULE": "COCN(COC)c1nc(N(COC)COC)nc(N(COC)COC)n1", "TEST_TARGET": "X-box-binding protein 1 (Homo sapiens)", "LABEL_CLASS": "inactive"}
{"MOLECULE": "NNC(=O)CCCCC(=O)NN", "TEST_TARGET": "X-box-binding protein 1 (Homo sapiens)", "LABEL_CLASS": "inactive"}

QUERY: For CC(C)(C)C1CCCCC1O (stereo not drawn) , which call appears in the assay record?
RESULT: inactive

QUERY: And CC(C)(C)c1ccc(O)c(O)c1 ?
RESULT: inactive

QUERY: And O=C1C=CC(=O)N1c1cccc(N2C(=O)C=CC2=O)c1 ?
RESULT: inactive

QUERY: And CN(CCO)S(=O)(=O)C(F)(F)C(F)(F)C(F)(F)C(F)(F)C(F)(F)C(F)(F)C(F)(F)C(F)(F)F ?
RESULT: inactive

QUERY: And O=C(Nc1ccc(Cl)c(Cl)c1)c1cc(Cl)cc(Cl)c1O ?
RESULT: active

QUERY: And CCC(=O)C=Cc1ccc(OC)cc1 ?
RESULT: inactive

QUERY: And CCCCCCCCCCCC ?
RESULT: inactive

====

molecular target: human Retinoid X Receptor beta (RXRb), RXRB (gene 6257); experiment: ATG_RXRb_TRANS: Attagene TRANS-FACTORIAL HepG2 Assay for human Retinoid X Receptor beta (RXRb) (AID 2283013)
Inconclusive results are not listed. Active and inactive are the calls of the source. The calls were made as follows: active = hit-call score of the fitted dose curve at least 0.9, where 1 is the maximum; inconclusive = response in the unintended direction; inactive = score below 0.9.
In this exercise, the only acceptable responses are active, inactive

{"MOLECULE": "CC1=CC(=O)c2ccccc2C1=O", "LABEL_CLASS": "inactive"}
{"MOLECULE": "CS(=O)(=O)c1ccc([C@@H](CC2CCCC2)C(=O)Nc2cnccn2)cc1Cl", "LABEL_CLASS": "inactive"}
{"MOLECULE": "O=S(=O)(O)c1ccccc1", "LABEL_CLASS": "inactive"}

QUERY: For c1cnc2c(c1)ccc1cccnc12 , which call appears in the assay record?
RESULT: inactive

QUERY: And C=Cc1ccc(O)c(OC)c1 ?
RESULT: inactive

====

Experiment: ATG_VDRE_CIS: Attagene CIS-FACTORIAL HepG2 Assay for human Vitamin D Receptor Element (VDRE) (AID 2282968)
Settings: HepG2 VDRE cis-reporter transcription, actives raise or lower the signal
Procedure: ATG_CIS is a cell-based, multiplexed-readout assay that uses HepG2, a human liver cell line, with measurements taken at 24 hours after chemical dosing in a 24-well plate.ATG_VDRE_CIS is one of 52 assay component(s) measured or calculated from the ATG_CIS assay. […] This assay endpoint, ATG_VDRE_CIS, was analyzed with bidirectional fitting relative to DMSO as the negative control and baseline of activity. […]
Calls of active or inactive are those of the source. How the source made its calls: active means hit-call score of the fitted dose curve at least 0.9, where 1 is the maximum; inactive means score below 0.9.
In this exercise, the only acceptable responses are Y for active, N for inactive

Observe how each entry below is paired with its result.
{"COMPOUND": "O=C(O)C(=O)O", "LABEL_CLASS": "N"}
{"COMPOUND": "CC1=CC(=O)c2ccccc2C1=O", "LABEL_CLASS": "N"}
{"COMPOUND": "Oc1cccc2c(O)cccc12", "LABEL_CLASS": "N"}
{"COMPOUND": "CCCCCCCCCCCC(=O)NCCCN(C)C", "LABEL_CLASS": "Y"}
{"COMPOUND": "NCc1cccc(CN)c1", "LABEL_CLASS": "N"}
{"COMPOUND": "CC(C)C=O", "LABEL_CLASS": "N"}
{"COMPOUND": "Cn1sccc1=O", "LABEL_CLASS": "N"}
{"COMPOUND": "CC(C)(C)c1ccc(O)c(O)c1", "LABEL_CLASS": "Y"}

QUERY: For O=C1c2ccc(O)c(O)c2C(=O)c2c(O)ccc(O)c21 , which call appears in the assay record?
RESULT: N

QUERY: And O=c1cc(-c2ccccc2)oc2ccc3ccccc3c12 ?
RESULT: N

QUERY: And CC(C)CCOCCC(C)C ?
RESULT: N

QUERY: And CC(O)COc1ccccc1 (configuration not stated) ?
RESULT: N

QUERY: And NC(C(F)(F)F)C(F)(F)F ?
RESULT: N

QUERY: And CCCCc1oc2ccccc2c1C(=O)c1cc(I)c(OCCN(CC)CC)c(I)c1 ?
RESULT: Y
